Experiment: activity coefficient (dimensionless); of the first substance listed, at infinite dilution; xn = mol fraction of the nth substance listed
Conditions: 323.15 K; Liquid; Chromatography; x1 = 0

- compound: "C1=CCCCC1 [cyclohexene] + CCCCCCn1cc[n+](C)c1.O=S(=O)([O-])C(F)(F)F"
  activity coefficient: 6.26
- compound: "Cc1cccc(C)c1 [1,3-dimethylbenzene] + CCCCCCn1cc[n+](C)c1.O=S(=O)([O-])C(F)(F)F"
  activity coefficient: 2.97
- compound: "CCCCCCCC [octane] + CCCCCCn1cc[n+](C)c1.O=S(=O)([O-])C(F)(F)F"
  activity coefficient: 33.9
- compound: "CCCCCCCCC [nonane] + CCCCCCn1cc[n+](C)c1.O=S(=O)([O-])C(F)(F)F"
  activity coefficient: 43.7
- compound: "CCCCCC [hexane] + CCCCCCn1cc[n+](C)c1.O=S(=O)([O-])C(F)(F)F"
  activity coefficient: 21.1
- compound: "C=Cc1ccccc1 [styrene] + CCCCCCn1cc[n+](C)c1.O=S(=O)([O-])C(F)(F)F"
  activity coefficient: 1.76
- compound: "Cc1ccccc1C [1,2-dimethylbenzene] + CCCCCCn1cc[n+](C)c1.O=S(=O)([O-])C(F)(F)F"
  activity coefficient: 2.56
- compound: "CCc1ccccc1 [ethylbenzene] + CCCCCCn1cc[n+](C)c1.O=S(=O)([O-])C(F)(F)F"
  activity coefficient: 2.99
- compound: "c1ccccc1 [benzene] + CCCCCCn1cc[n+](C)c1.O=S(=O)([O-])C(F)(F)F"
  activity coefficient: 1.5
- compound: "CCCCCCC [heptane] + CCCCCCn1cc[n+](C)c1.O=S(=O)([O-])C(F)(F)F"
  activity coefficient: 26.6
- compound: "Cc1ccc(C)cc1 [1,4-dimethylbenzene] + CCCCCCn1cc[n+](C)c1.O=S(=O)([O-])C(F)(F)F"
  activity coefficient: 2.91
- compound: "CC(C)CC(C)(C)C [2,2,4-trimethylpentane] + CCCCCCn1cc[n+](C)c1.O=S(=O)([O-])C(F)(F)F"
  activity coefficient: 26.7
- compound: "CCCCC [pentane] + CCCCCCn1cc[n+](C)c1.O=S(=O)([O-])C(F)(F)F"
  activity coefficient: 14.5
- compound: "Cc1ccccc1 [toluene] + CCCCCCn1cc[n+](C)c1.O=S(=O)([O-])C(F)(F)F"
  activity coefficient: 2.06
- compound: "CCCCCCCCCC [decane] + CCCCCCn1cc[n+](C)c1.O=S(=O)([O-])C(F)(F)F"
  activity coefficient: 279
- compound: "CC1CCCCC1 [methylcyclohexane] + CCCCCCn1cc[n+](C)c1.O=S(=O)([O-])C(F)(F)F"
  activity coefficient: 13.9
- compound: "C1CCCCC1 [cyclohexane] + CCCCCCn1cc[n+](C)c1.O=S(=O)([O-])C(F)(F)F"
  activity coefficient: 10.8
